Cited source for all entries: patent US20240262842A1

System: MIA PaCa-2 cells
Assay: Growth inhibition activity on KRAS-G12C mutant cell line (CellTiter-Glo 3D)
Format: cell-based, human
Details: Homo sapiens, MIA PaCa-2, 72 h, MIA PaCa-2, 3-day culture with compound; Table 3-1
parameter: IC50 (nM)
Numbers only, in nM.

Known results for compounds:
>  <compound>
CN1CCc2cc(C(=O)c3cc(F)c(NC(=O)/C=C/CNCC(C)(C)O)c(F)c3)n3cccc(c23)-c2c(C(F)(F)F)cc3c(ncn3C)c21 [Example 112]

>  <IC50 (nM)>
10.1

$$$$
>  <compound>
COc1cc2c(nc(C)n2C)c2c1-c1cccn3c(C(=O)c4cc(F)c(NC(=O)/C=C/CN[C@H]5CC[C@H](OC)CC5)c(F)c4)cc(c13)CCN2C [Example 78]

>  <IC50 (nM)>
6.92

$$$$

The record that follows has no IC50 shown yet.
Param item = Cc1nnc2c3c(c(C(F)(F)F)cn12)-c1cccn2c(C(=O)c4cc(F)c(NC(=O)/C=C/CN[C@H]5CCOC5)c(F)c4)cc(c12)CCN3C [Example 217] ; retrieve measured IC50.
6.22

----------
Tested on: MIA PaCa-2 cells
Test: Growth inhibition activity on KRAS-G12C mutant cell line (CellTiter-Glo 3D)
Assay type: cell-based, human
Details: Homo sapiens, MIA PaCa-2, 72 h, MIA PaCa-2, 3-day culture with compound; Table 3-1
Provide the recorded log10 IC50 for the entries that follow.
A difference of one corresponds to tenfold IC50; all values are log10 with IC50 in nM.

I need log10 IC50 for every entry listed below, if you could help.
1. Cn1cnc2c3c(c(C(F)(F)F)cc21)-c1cccn2c(C(=O)c4cc(F)c(NC(=O)/C=C/CNC5(C)COC5)c(F)c4)cc(c12)CCO3 (single isomer, unassigned) [Example 75]
2. CN1CCc2cc(C(=O)c3cc(F)c(NC(=O)/C=C/CNC4(C)COC4)c(F)c3)n3cccc(c23)-c2c(C(F)(F)F)cc3[nH]cnc3c21 (single isomer, unassigned) [Example 179]
3. COc1cc2c(nc(C)n2C)c2c1-c1cccn3c(C(=O)c4cc(F)c(NC(=O)/C=C/CNC5CCCCC5)c(F)c4)cc(c13)CCN2C [Example 104]

[0.98, 2.14, 1.19]

Report log10 IC50 for every entry below.
1. Cc1c2c3c(cccn3c1C(=O)c1cc(F)c(NC(=O)/C=C/CNC3(C)COC3)c(F)c1)-c1c(C(F)(F)F)cc3c(nc(C)n3C)c1OCC2 [Example 58]
2. COCCn1c(C)nc2c3c(c(OC)cc21)-c1cccn2c(C(=O)c4cc(F)c(NC(=O)/C=C/CN[C@H]5CCOC5)c(F)c4)cc(c12)CCN3C (single isomer, unassigned) [Example 201]
3. CO[C@H]1CC[C@H](NC/C=C/C(=O)Nc2c(F)cc(C(=O)c3cc4c5c(cccn35)-c3c(Cl)cc5c(nc(C)n5C)c3OCC4)cc2F)CC1 [Example 53]

1.85
0.77
1.50

Tell me the measured log10 IC50 of CC1(NC/C=C/C(=O)Nc2c(F)cc(C(=O)c3cc4c5c(cccn35)-c3c(cc(N5CCOC5=O)cc3C(F)(F)F)OCC4)cc2F)CC1 [Example 232] , please.
1.26

----------
System: MIA PaCa-2 cells
Experiment: Growth inhibition activity on KRAS-G12C mutant cell line (CellTiter-Glo 3D)
Type: cell-based, human
Details: Homo sapiens, MIA PaCa-2, 72 h, MIA PaCa-2, 3-day culture with compound; Table 3-1
Method: MIA PaCa-2 cells (given by Sumitomo Dainippon Pharma Co., Ltd.), which are a KRAS-G12C mutant human pancreas cancer cell line, were suspended in a 10% fetal bovine serum-containing RPMI1640 medium (manufactured by Fujifilm Wako Pure Chemical Corporation). […] The cell count after 3-day culture in the presence of the test compound was measured using CellTiter-Glo 3D Reagent (manufactured by Promega Corporation). […] 30 minutes after mixing, luminescence was measured by a plate reader. […]
Could you please report measured IC50 for the items listed next?
Answers are plain numbers, in nM.

Reference set, count: 2
>  <molecule>
Cc1nc2c3c(c(C(F)(F)F)cc2n1C)-c1cccc2c(C(=O)c4cc(F)c(NC(=O)/C=C/CNC(C)(C)CF)c(F)c4)cn(c12)CCN3C [Example 82]

>  <subject of test>
MIA PaCa-2 cells

>  <IC50 / nM>
29.9

$$$$
>  <molecule>
Cn1cnc2c3c(c(C(F)(F)F)cc21)-c1cccn2c(C(=O)c4cc(F)c(NC(=O)/C=C/CN5CC6(COC6)C5)c(F)c4)cc(c12)CCO3 [Example 198]

>  <subject of test>
MIA PaCa-2 cells

>  <IC50 / nM>
21.4

$$$$

Parameter requested: IC50. Apply to each item below.
1. COCc1nc2c3c(c(OC)cc2n1C)-c1cccn2c(C(=O)c4cc(F)c(NC(=O)/C=C/CN[C@H]5CCOC5)c(F)c4)nc(c12)CCN3C (single isomer, unassigned) [Example 177]
2. Cn1cnc2c3c(c(C(F)(F)F)cc21)-c1cccn2c(C(=O)c4cc(F)c(NC(=O)/C=C/CN5CC6CCC5C6)c(F)c4)cc(c12)CCO3 (stereo not shown) [Example 234]

1: 38.5; 2: 7.08
